Assignment: determine reported TGI for the given compounds.
# Tested on: SW-620 colon
# Assay Procedure: NCI tumour cell line growth inhibition, 48 h

Compound	Result
CC#CC(O)(C(=O)OC1CCCN(C)C1)C1=CC=CCC1 (stereo not given)	> 100 µM

Working through the 5 compounds below one at a time, give TGI for each.
1. CC(C)=CC(C(O)c1ccccc1)S(=O)(=O)c1nccn1C (stereo not given)
2. CCOC(=O)c1c(N2CCOCC2)[nH]c(=O)c(C(c2ccc(OC)cc2)c2c(O)c(C(=O)OCC)c(N3CCOCC3)[nH]c2=O)c1O
3. Nc1nc(-c2cccc([N+](=O)[O-])c2)c(Br)c(=O)[nH]1
4. c1ccc2c(c1)[I+]c1ccccc1-2
5. CN1C2CC(=O)CC1[C@@H]1OC(c3ccccc3)O[C@H]21 (stereo not given in full)

["> 100 µM", "> 100 µM", "> 100 µM", "> 50 µM", "> 100 µM"]

Working through the 4 compounds below one at a time, give TGI for each.
1. CC[N+](C)(CC)CCN1C(=O)c2ccccc2S1(=O)=O
2. COC(=O)[C@@H]1N2C(=S)N(c3ccccc3)C(=O)[C@H]2SC1(C)C
3. N#CCCN(CCCN(C(=O)Nc1ccccc1)c1ccccc1)C(=O)Nc1ccccc1
4. CSC(=NC1=NC(C(F)(F)F)(C(F)(F)F)N=C(c2ccccc2)O1)SC

1: > 100 µM; 2: > 100 µM; 3: > 100 µM; 4: > 100 µM

====

# System: XF 498 CNS
# Assay Procedure: NCI tumour cell line growth inhibition, 48 h
Metric: TGI

Examples with answers:
Compound	Metric	Result
Cc1cc2nc3c(=O)n(C)c(=O)nc-3n(-c3ccc(Cl)cc3)c2cc1C	TGI	7.14 µM
CC(=O)NC(CCCCNC(=O)OCc1ccccc1)C(=O)NCc1ccccc1 (stereo not given)	TGI	> 100 µM

Working through the 7 compounds below one at a time, give TGI for each.
1. NC(N)=N/N=C(/c1nc2ccc([N+](=O)[O-])cc2[nH]c1=O)C(O)c1ccco1 (stereo not given)
2. CC(=O)OCC1OC(n2c(-c3ccccc3)cc(-c3ccco3)c(C#N)c2=O)C(OC(C)=O)C(OC(C)=O)C1OC(C)=O (stereo not given)
3. Cc1cc2c(CC(=O)O)[nH]nc2c(C(=O)O)c1C
4. CC1(C)C(=O)N(c2ccccc2)C(=O)N1c1nc2ccccc2[nH]1
5. COS(=O)c1cc(Cl)cc(Cl)c1O (stereo not given)
6. COc1cc(-c2cc(=O)c3cc4c(cc3[nH]2)OCO4)cc(OC)c1OC
7. CCN(CC)CCCNc1ccc2nnn3c4ccc(O)cc4c(=O)c1c23

1. > 100 µM
2. 43.7 µM
3. > 100 µM
4. > 100 µM
5. > 100 µM
6. > 100 µM
7. 28.9 µM

// TGI lookup, compound = `Cc1nc(N)sc1C(=O)/C=C/c1ccc(/C=C/C(=O)c2sc(NC(=O)CCCCCCCCC(=O)Nc3nc(C)c(C(=O)/C=C/c4ccc(/C=C/C(=O)c5sc(N)nc5C)cc4)s3)nc2C)cc1` , result: > 100 µM

====

# Tested on: KM12 colon
# Assay Procedure: NCI tumour cell line growth inhibition, 48 h
Metric: TGI (µM)
Numbers only, in µM.

Examples with answers:
Compound	TGI, µM
COc1cc(OC2OC(C)C(O)C(O)C2O)cc2oc(-c3ccc(O)cc3)c(CC=C(C)C)c(=O)c12 (stereo not given)	31
Oc1ccc(Br)cc1Sc1cc(Br)ccc1O	33.3
Oc1ccc(N=Nc2ccc(Cl)cc2)cc1	28.2

Considering `CC(C)(C)N1Cc2ccccc2/C(=C/Sc2ccccc2)C1=O` , its TGI with KM12 colon was recorded as 31.4

====

# System: LOX IMVI melanoma
# Assay Procedure: NCI tumour cell line growth inhibition, 48 h
Assignment: determine reported TGI for the given molecules.

Examples with answers:
Molecule	TGI
COc1ccc(-c2c(C3=NCCN3)nnn2-c2ccccc2)cc1	> 100 µM
CCN(CC)CCCNc1ccc2nnn3c4ccc(O)cc4c(=O)c1c23	13.1 µM
O=C(c1ccco1)N(C(=S)OCc1ccccn1)c1ccccc1	> 100 µM
COc1ccc(NC(=O)C2C(=O)N(c3ccc(OC)cc3)C(=O)/C2=N/O)cc1 (stereo not drawn)	> 100 µM
COc1cc(OC)c(/C=C/c2ccc3ccccc3[n+]2C)c(OC)c1	3.99 µM
O=C1c2ccccc2CC12Cc1ccc3c(c1C2)CCC3 (stereo not drawn)	24.8 µM
CCCCCCNC(=O)C1=C(C)NC(C)=C(C(=O)NCCCCCC)C1	> 100 µM
CCOC(=O)C1=C(C)NC(=S)NC1c1cccc(O)c1 (stereo not drawn)	> 100 µM
Cc1cc2c(CC(=O)O)[nH]nc2c(C(=O)O)c1C	> 100 µM
O=C(NCCO)c1ccc(Cl)cc1	> 100 µM

Working through the 5 molecules below one at a time, give TGI for each.
1. CCCCN(c1ccccc1)c1ncnc2c1cnn2C
2. O=C(Nc1ccccc1C(F)(F)F)c1cccc(NC2=C(Cl)C(=O)N(Cc3ccccc3)C2=O)c1
3. Cc1nc2ccc(C(F)(F)F)cc2nc1Nc1ccc(Cl)c(Cl)c1
4. COc1ccc2c(c1)CCc1c-2n(CCN(C)C)c2ccc(OC)cc12
5. NC(=O)c1c[se]c(C2OC(CO)C(O)C2O)n1 (stereo not drawn)

["> 100 µM", "36.9 µM", "13.5 µM", "> 100 µM", "> 100 µM"]

Working through the 6 molecules below one at a time, give TGI for each.
1. CC(C)(C)N1Cc2ccccc2/C(=C/Sc2ccccc2)C1=O
2. Cc1ccc(C(=O)c2oc3ccc4c(C)cc(=O)oc4c3c2C)cc1
3. CC1(C)C(=O)N(c2ccccc2)C(=O)N1c1nc2ccccc2[nH]1
4. CC(C)=CC(C(O)c1ccccc1)S(=O)(=O)c1nccn1C (stereo not drawn)
5. O=c1cc(-c2ccccc2)[nH]c2cc(Cl)cc(Cl)c12
6. CCOc1ccccc1NC(=O)/C=C1\NC(=O)CS1

1: 11.3 µM; 2: 19.1 µM; 3: > 100 µM; 4: > 100 µM; 5: > 100 µM; 6: > 100 µM

Working through the 2 molecules below one at a time, give TGI for each.
1. Cc1ccc(S(=O)(=O)N2CCN(CCN(C)CCN3CCN(S(=O)(=O)c4ccc(C)cc4)CC3)CC2)cc1
2. O=C(Nc1cccc(-c2cn3ccccc3n2)c1)c1ccncc1

1. 33 µM
2. > 100 µM

====

# Test system: MALME-3M melanoma
# Assay Procedure: NCI tumour cell line growth inhibition, 48 h
Metric: TGI

Examples with answers:
Compound	TGI
O=C(Nc1ccccc1C(F)(F)F)c1cccc(NC2=C(Cl)C(=O)N(Cc3ccccc3)C2=O)c1	> 100 µM
COc1cc(/C=C2/SC(c3ccccc3)N(c3cccc([N+](=O)[O-])c3)C2=O)cc(OC)c1OC (configuration not stated)	> 100 µM
Cc1cc(S(=O)(=O)Nc2nnc3cc(C(F)(F)F)cc(C)n23)c(S)cc1Cl	> 100 µM
COc1cc2ccnc3c2c(c1O)N(C)C=C3	21.7 µM
COS(=O)c1cc(Cl)cc(Cl)c1O (configuration not stated)	> 100 µM

Working through the 2 compounds below one at a time, give TGI for each.
1. CC(C)=CC(C(O)c1ccccc1)S(=O)(=O)c1nccn1C (configuration not stated)
2. Cc1cc2nc3c(C(OC4OC(CO)C(O)C(O)C4O)C(O)CO)nn(-c4ccccc4)c3nc2cc1C (configuration not stated)

1: > 100 µM; 2: > 100 µM

====

# System: EKVX NSCLC
# Assay Procedure: NCI tumour cell line growth inhibition, 48 h
Assignment: determine reported GI50 for the given molecules.

Examples with answers:
Molecule	System	GI50
S=C(Nc1ccc(-c2nc3ccccc3[nH]2)cc1)NC1CCCCC1	EKVX NSCLC	28.5 µM
COc1cc2nc(-c3ccc(C(F)(F)F)cc3)cc(OCCCN3CCOCC3)c2cc1OC	EKVX NSCLC	1.61 µM
O=[N+]([O-])c1ccc2[nH]cc(-c3c4ccsc4cc4[nH]c5ccc([N+](=O)[O-])cc5c34)c2c1	EKVX NSCLC	1.56 µM

Working through the 2 molecules below one at a time, give GI50 for each.
1. CC(=O)Oc1cc(C)ccc1[C@]1(C)CC[C@H](C)/C1=C\Br
2. O=c1ccn(C2OC(CO)C(O)C2O)c(=O)[nH]1 (stereo not given)

6.67 µM
> 1000 µM

====

Assignment: determine reported TGI for the given compounds.
# Test system: HCT-15 colon
# Assay Procedure: NCI tumour cell line growth inhibition, 48 h
Answers are plain numbers, in µM.

Compound	TGI, µM
CN(C)CCNc1nc2ccccc2c2c1c1c(n2Cc2ccccc2)-c2ccccc2C1=O	26.1
COc1cc(/C=C/c2cc(C(F)(F)F)[nH]c(=O)n2)ccc1OCc1ccccc1F	28.3
O=C1c2ccccc2CC12Cc1ccc3c(c1C2)CCC3 (stereo not given)	31.6
CCCCCCC/C=C/[C@H]1O[C@]23C(=O)C[C@@]4(C[C@@H](OC5OC(CO)C(O)C(O)C5O)C[C@@H]4[C@H]2C=C1C)OC3=O (stereo not given in full)	9.43

// TGI lookup, compound = `Nc1c(C(=O)c2ccccc2)sc2nc(-c3cccs3)ccc12` , result: 10.4
